- System: human APOE RNA
- assayMethodText: Activity in APOE C57BL/6NTac-Apoeem7250 knock-in mice, single ICV bolus, 16 weeks (Example 12)
- Type: in vivo
- experimentalSetup: spinal cord; single ICV bolus 300 μg; 16 weeks post treatment; normalized to mouse Ppia
Strand notation (5' to 3'): a small letter for the sugar, then the base; units joined by * are phosphorothioate-linked, units joined directly phosphodiester-linked; [ ] holds rarer units or linkages, { } end groups; capitals alone tell only the bases. [ms] = mesyl phosphoramidate linkage; e = 2'-O-(2-methoxyethyl) (MOE); k = constrained ethyl (cEt); [5mC] = 5-methylcytosine; d = 2'-deoxy (DNA)
Rule: measured APOE RNA (% control) Spinal Cord below 30 % control gets Y; anything equal to or greater than 30 % control gets N.

[[record]]
substance = "1693039: 5-10-5 MOE gapmer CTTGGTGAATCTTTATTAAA, linkages sssosszzzssssssooss (antisense e[5mC]*eT*eT*eGeG*dT*dG[ms]dA[ms]dA[ms]dT*d[5mC]*dT*dT*dT*dA*eTeTeA*eA*eA) [compound 1693039]"
studysystem = "human APOE RNA"
grouplabel = "N"

[[record]]
substance = "1785617: modified oligonucleotide complementary to human APOE RNA (k[5mC]*dT[ms]dT[ms]kG*dG[ms]kT*dG[ms]dA[ms]dA[ms]dT[ms]d[5mC]*dT*dT*dT*dA*dT*kT*kA*dA[ms]kA; antisense) [compound 1785617]"
studysystem = "human APOE RNA"
grouplabel = "Y"

[[record]]
substance = "1693106: 6-10-4 MOE gapmer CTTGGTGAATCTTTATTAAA, linkages sssssszzzssssszssss (e[5mC]*eT*eT*eG*eG*eT*dG[ms]dA[ms]dA[ms]dT*d[5mC]*dT*dT*dT*dA[ms]dT*eT*eA*eA*eA) [compound 1693106]"
studysystem = "human APOE RNA"
grouplabel = "N"

[[record]]
substance = "1778113 (eA*e[5mC]eTeTkG*kG*dT*dG[ms]dA[ms]dA*dT*d[5mC]*dT*dT*dT*dA[ms]eT*eT*eA*eA; antisense) [Compound 1778113]"
studysystem = "human APOE RNA"
grouplabel = "Y"

[[record]]
substance = "1693067: 5-10-5 MOE gapmer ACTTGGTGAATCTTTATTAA, linkages ssosssszzzszsssssss (antisense eA*e[5mC]*eTeT*eG*dG*dT*dG[ms]dA[ms]dA[ms]dT*d[5mC][ms]dT*dT*dT*eA*eT*eT*eA*eA) [compound 1693067]"
studysystem = "human APOE RNA"
grouplabel = "N"

[[record]]
substance = "1778127: modified oligonucleotide complementary to human APOE RNA (eA*e[5mC]eTeTkGkG*dT*dG[ms]dA[ms]dA*dT*d[5mC]*dT*dT*dT*dA[ms]kTeT[ms]eA[ms]eA; antisense) [compound 1778127]"
studysystem = "human APOE RNA"
grouplabel = "Y"

[[record]]
substance = "1652903: 6-10-4 MOE gapmer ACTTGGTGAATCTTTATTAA, linkages sooooossssssssssoss (antisense eA*e[5mC]eTeTeGeGdT*dG*dA*dA*dT*d[5mC]*dT*dT*dT*dA*eTeT*eA*eA) [compound 1652903]"
studysystem = "human APOE RNA"
grouplabel = "N"

[[record]]
substance = "1693060: 5-10-5 MOE gapmer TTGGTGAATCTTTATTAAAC, linkages ssssszzzsssszzsosss (antisense eT*eT*eG*eG*eT*dG[ms]dA[ms]dA[ms]dT*d[5mC]*dT*dT*dT[ms]dA[ms]dT*eTeA*eA*eA*e[5mC]) [compound 1693060]"
studysystem = "human APOE RNA"
grouplabel = "N"

[[record]]
substance = "1736534 (e[5mC]*eT*eT*eG*eGeT*dG[ms]dA[ms]dA[ms]dT*d[5mC]*dT*dT*dT*dA[ms]dT*kT*kA*eA*eA; antisense) [Compound 1736534]"
studysystem = "human APOE RNA"
grouplabel = "N"

[[record]]
substance = "1693055: 5-10-5 MOE gapmer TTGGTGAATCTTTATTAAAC, linkages sososzzzsssssssosss (antisense eT*eTeG*eGeT*dG[ms]dA[ms]dA[ms]dT*d[5mC]*dT*dT*dT*dA*dT*eTeA*eA*eA*e[5mC]) [compound 1693055]"
studysystem = "human APOE RNA"
grouplabel = "N"

[[record]]
substance = "1778119 (eA*e[5mC]eTeTeG*eG*dT*dG[ms]dA[ms]dA*dT*d[5mC]*dT*dT*dT*dA[ms]kTeT*eA*eA; antisense) [Compound 1778119]"
studysystem = "human APOE RNA"
grouplabel = "N"

[[record]]
substance = "1693110: 6-10-4 MOE gapmer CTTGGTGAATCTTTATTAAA, linkages sssssszzzsssszzssss (e[5mC]*eT*eT*eG*eG*eT*dG[ms]dA[ms]dA[ms]dT*d[5mC]*dT*dT*dT[ms]dA[ms]dT*eT*eA*eA*eA) [compound 1693110]"
studysystem = "human APOE RNA"
grouplabel = "N"

[[record]]
substance = "1736533 (e[5mC]*eT*eT*eG*eGeT*dG[ms]dA[ms]dA[ms]dT*d[5mC]*dT*dT*dT*dA[ms]dT*kT*eA*eA*eA; antisense) [Compound 1736533]"
studysystem = "human APOE RNA"
grouplabel = "N"

[[record]]
substance = "1785601: modified oligonucleotide complementary to human APOE RNA (k[5mC]*kT*kT*dG[ms]dG[ms]dT[ms]dG*dA[ms]dA[ms]dT*d[5mC]*dT*dT*dT*dA[ms]dT*kT*kA*dA[ms]kA; antisense) [compound 1785601]"
studysystem = "human APOE RNA"
grouplabel = "Y"

[[record]]
substance = "1778117 (eA*e[5mC]eTeTeG*eG*dT*dG[ms]dA[ms]dA*dT*d[5mC]*dT*dT*dT*dA[ms]kT*eT*eA*eA; antisense) [Compound 1778117]"
studysystem = "human APOE RNA"
grouplabel = "N"

[[record]]
substance = "Aes^mCeoTeoTesGesGksTdsGdzAdzAdzTds^mCdsTdsTdsTdsAdzTksTksAesAe (eA*e[5mC]eTeT*eG*kG*dT*dG[ms]dA[ms]dA[ms]dT*d[5mC]*dT*dT*dT*dA[ms]kT*kT*eA*eA) [Compound No. 1757576]"
studysystem = "human APOE RNA"
grouplabel = "Y"

